# Target Or System: T1, biotinylated monovalent EpCAM-Fc (human EpCAM ECD-Fc knob avi-his paired with Fc hole) (human, UniProt P01857 104-328 = IgG part, biotin on the avi tag (BirA co-expression))
# T1 construct: also called monovalent EpCAM-Fc construct; huEPCAM-Fc-knob (avi-His) + Fc hole (wt)
# Experiment: SPR ProteOn XPR36 off-rate, biotinylated monovalent EpCAM-Fc on NLC chip, 50 nM supernatant
Consider the following binders; for each one, report its koff.
Report only the number, with the unit s⁻¹ understood.

[in] Find the recorded koff belonging to Monovalent EpCAM (GG04_VH x GG01_VL) (antibody, IgG1, V domains shown, one-armed hu IgG1 PG-LALA, VH/VL-crossed Fab on Fc hole plus empty Fc knob; from supernatant) VH: EVQLVQSGAEVKKPGESLKISCKGSGYSFTNYGMNWVRQMPGKGLEWMGWINTYTGESTYSPSFQGQVTISADKSISTAYLQWSSLKASDTAMYFCARFAIKGDYWGQGTLVTVSS VL: DIVMTQSPLSLPVTPGEPASISCRSSQSLLHSNGITYLYWYLQKPGQSPQLLIYQMSNRASGVPDRFSGSGSGTDFTLKISRVEAEDVGVYYCAQNLEIPRTFGQGTKLEIK and report it.
[out] 0.00662

[in] Find the recorded koff belonging to Monovalent EpCAM (GG07_VH x GG05_VL) (antibody, IgG1, V domains shown, one-armed hu IgG1 PG-LALA, VH/VL-crossed Fab on Fc hole plus empty Fc knob; from supernatant) VH: QVQLVQSGSELKKPGASVKVSCKASGYTFTNYGMNWVRQAPGQGLEWMGWINTYTGESTYAQGFTGRFVFSLDTSVSTAYLQISSLKAEDTAVYFCARFARSGDYWGQGTLVTVSS VL: DIVMTQSPLSLPVTPGEPASISCRSSQGINNYLYWYLQKPGQSPQLLIYQMSNRASGVPDRFSGSGSGTDFTLKISRVEAEDVGVYYCAQNLEIPRTFGQGTKLEIK and report it.
[out] 0.00491

[in] Find the recorded koff belonging to Monovalent EpCAM (GG05_VH x GG03_VL) (antibody, IgG1, V domains shown, one-armed hu IgG1 PG-LALA, VH/VL-crossed Fab on Fc hole plus empty Fc knob; from supernatant) VH: EVQLVQSGAEVKKPGESLKISCKGSGYSFTQYGMNWVRQMPGKGLEWMGWINTYTGESTYSPSFQGQVTISADKSISTAYLQWSSLKASDTAMYFCARFAIKGDYWGQGTLVTVSS VL: EIVLTQSPGTLSLSPGERATLSCRASQSLLHSNGITYLYWYQQKPGQAPRLLIYQMSNRATGIPDRFSGSGSGTDFTLTISRLEPEDFAVYYCAQNLEIPRTFGQGTKLEIK and report it.
[out] 4.35e-05
